So I've got a bunch of molecules here, and I need their growth inhibition values.
experiment: NCI Yeast Anticancer Drug Screen. Data for the rad50 strain (AID 155);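 further: 0% = growth of vehicle-only cultures of the same strain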; settings: S. cerevisiae rad50 strain growth inhibition; at 50.0 µM (retest, dose inferred, filed as 5.0); active compounds read high
Compounds without any hit were thinned out: in the full panel of roughly 79,000, 15% have a hit.
Give bare numbers, in %.

Past entries and their recorded results:
1) O=C(C[n+]1ccccc1Cl)c1ccc(F)cc1
99
2) O=C(O)c1cc2c(cc1CC(Cc1ccc3c(c1)CCCC3)C(=O)O)CCCC2 (centres undefined)
95
3) c1ccc(C2=NC(=c3ccc(=C4N=C(c5ccccc5)C(c5ccccc5)=N4)cc3)N=C2c2ccccc2)cc1
44
4) CC[N+](C)(CC)CCCOC(=O)c1ccccc1Oc1ccc(C)cc1
0
5) O=C(O)c1ccccc1N=N/C(=N\Nc1cc(S(=O)(=O)O)ccc1O)c1ccccc1
85

Value sought for every listed molecule: growth inhibition.
1. C1Cc2c3c4c(c5c2C(C1)CCC5)CCCC4CCC3
2. Cn1nc(N)c2cccnc21
3. COc1ccc2nc3cc(Cl)ccc3c(Nc3nccs3)c2c1

**A:**
[8, 19, 90]

Value sought for every listed molecule: growth inhibition.
1. O=C(CBr)N1c2ccccc2Sc2ccc3ccccc3c21
2. CN(C)c1ccc(/C=C2/Oc3ccc(Cl)cc3C2=O)cc1
3. O=C(NO)C(=O)Nc1cc(Cl)ccc1Cl
4. C=C(CS(=O)(=O)c1ccccc1)[P+](c1ccccc1)(c1ccccc1)c1ccccc1
5. Cc1ccc(NNC2=NC(=S)NC(=O)C2)cc1
6. NC(=Nc1ccccc1)c1ccc2c(c1)c1c(n2Cc2ccccc2)CCCC1

**A:**
[99, 98, 57, 95, 97, 99]

Value sought for every listed molecule: growth inhibition.
1. CCC/C=C1/OC(=O)C2=C[C@H]3CC[C@]21[C@]1(OC(=O)C2=C1CCC=C2)[C@H]3CCC
2. COc1cc2c(cc1OC)c1c(OC)c(OC)cc3c1c1c2sc(=S)n1CC3
3. CC1CN(CC2CCCCCCCCCCC2=O)CC(C)O1 (centres undefined)
4. CCn1c2ccccc2c(=O)c2c(OC)ccc(OC)c21
5. CCOC(=O)C1CSC(c2c(CO)cnc(C)c2O)N1 (centres undefined)

**A:**
1. 96
2. 59
3. 74
4. 73
5. 5

Value sought for every listed molecule: growth inhibition.
1. Oc1c(Cl)cc(Cl)c(Cc2c(Cl)cc(Cl)c(O)c2Cl)c1Cl
2. NNc1ccc(Br)cc1

**A:**
[97, 98]

Value sought for every listed molecule: growth inhibition.
1. CC(C)C(=O)/C=C/c1ccc(Cl)cc1Cl
2. C/C(=N\Oc1ncc([N+](=O)[O-])c(O/N=C(\C)c2ccccc2)n1)c1ccccc1
3. CCCCCCCCCc1ccc(O)c(Cl)c1

**A:**
1. 46
2. -24
3. 94

---

experiment: NCI Yeast Anticancer Drug Screen. Data for the sgs1 mgt1 strain (AID 161);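 further: 0% = growth of cultures given vehicle only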; conditions: S. cerevisiae sgs1 mgt1 strain, at 50.0 µM, active compounds read high
Compounds without any hit were thinned out: in the full panel of roughly 79,000, 15% have a hit.
Readout name: growth inhibition (%)
One number for each entry, in %.

Past entries and their recorded results:
1. Nc1ccccc1N=Cc1ccccc1O
0.4
2. COc1ccc(/C(C#N)=C/c2ccncc2)cc1
68
3. CCCCCCCCCCCC(=O)[O][Sn]([CH2]C)([CH2]C)[O]C(=O)CCCCCCCCCCC
95.8
4. CCCCOc1ccc(-c2c(COC(=O)NC)c(COC(=O)NC)c(C)n2C)cc1
90
5. O=C1CC(c2ccccc2)c2c(ccc3ccccc23)O1 (configuration not stated)
75.2

Value sought for every listed molecule: growth inhibition.
1. Cc1ccc(S(=O)(=O)Oc2c([N+](=O)[O-])cc(C)cc2[N+](=O)[O-])cc1
2. Cc1c(Cl)cc2[nH]c(C(F)(F)F)nc2c1Cl
3. Cc1ccc(S(=O)(=O)CC(=O)CC(=O)C(=O)Nc2cc(C)ccc2C)cc1
4. ClCc1ccc2oc3ccccc3c2c1
5. CN(C)c1ccc(C(c2cc3c(cc2O)OCO3)N2CCCC2)cc1 (configuration not stated)
6. Cc1cc2nc(CC(=O)c3ccc4ccccc4c3)c(=O)[nH]c2cc1C
7. O=[N+]([O-])c1ccc2c(c1)[nH]c1ccccc12

**A:**
1. 98.2
2. 71.2
3. 17.9
4. 27.9
5. 99.2
6. 88.3
7. 73.8
